B1: His6-SUMO-tagged SH3 to PDZ domains of Shank2 (R520-D727), WT [not stated (human or rat cDNA cloned)] / synthetic peptide of the complete PDZ ligand of GKAP (last 15 amino acids of GKAP/SAPAP1) [not stated] (parent complex)
chain 1: RKLYSAVPGRLFVAVKPYQPQVDGEIPLHRGDRVKVLSIGEGGFWEGSARGHIGWFPAECVEEVQCKPRDSQAETRADRSKKLFRHYTVGSYDSFDTSSDCIIEEKTVVLQKKDNEGFGFVLRGAKADTPIEEFTPTPAFPALQYLESVDEGGVAWQAGLRTGDFLIEVNNENVVKVGHRQVVNMIRQGGNHLVLKVVTVTRNLDPDD
chain 2: ADSIEIYIPEAQTRL

variants of: B1; assay: ITC; parent: 319 nM
Entries and their Kd values follow.
outcome.measure: Kd

chain 1 V198F = 0.848 µM
chain 1 S91Y = 0.91 µM
chain 1 N171S = 0.411 µM
